Biological target: human NMB receptor (BB1) (Homo sapiens, UniProt P28336)
Construct: expressed in transfected cells; membranes prepared from the cells
Sequence (P28336 whole entry): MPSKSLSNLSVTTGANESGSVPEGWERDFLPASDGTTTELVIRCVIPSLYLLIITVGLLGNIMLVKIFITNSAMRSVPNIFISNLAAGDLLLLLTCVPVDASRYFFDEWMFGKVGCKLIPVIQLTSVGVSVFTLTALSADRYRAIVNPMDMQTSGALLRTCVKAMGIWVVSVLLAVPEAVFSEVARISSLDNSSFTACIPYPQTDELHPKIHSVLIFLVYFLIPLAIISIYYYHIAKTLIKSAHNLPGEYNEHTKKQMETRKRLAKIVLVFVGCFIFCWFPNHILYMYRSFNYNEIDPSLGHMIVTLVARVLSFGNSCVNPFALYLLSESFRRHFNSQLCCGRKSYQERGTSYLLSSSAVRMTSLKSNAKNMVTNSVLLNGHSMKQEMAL
Test: BB1 binding assay ([125I][Tyr4]bombesin displacement, CHO-K1 membranes)
Conditions: Table 3, N-acyl derivatives of Intermediate III-7
pIC50: −log10 of the molar value.
measured-property: pIC50

Examples from the recorded data:
Recorded pIC50 of C[C@@](Cc1c[nH]c2ccccc12)(NC(=O)c1cccs1)C(=O)NCC1(c2ccccn2)CCCCC1 , please.
5.84

Moving on to C[C@@](Cc1c[nH]c2ccccc12)(NC(=O)c1ccccc1Cl)C(=O)NCC1(c2ccccn2)CCCCC1
5.49

Same again, this time with C[C@@](Cc1c[nH]c2ccccc12)(NC(=O)c1cc2ccccc2s1)C(=O)NCC1(c2ccccn2)CCCCC1
6.21

What do you get for Cc1ccc(CC(=O)N[C@@](C)(Cc2c[nH]c3ccccc23)C(=O)NCC2(c3ccccn3)CCCCC2)cc1 ?
6.03

Here is the next molecule: C[C@@](Cc1c[nH]c2ccccc12)(NC(=O)c1cccc(S(C)(=O)=O)c1)C(=O)NCC1(c2ccccn2)CCCCC1
5.52

Follow-up item: COc1cccc(C(=O)N[C@@](C)(Cc2c[nH]c3ccccc23)C(=O)NCC2(c3ccccn3)CCCCC2)c1
5.54

a = C[C@@](Cc1c[nH]c2ccccc12)(NC(=O)c1ccc2ncsc2c1)C(=O)NCC1(c2ccccn2)CCCCC1
b = Cn1cccc1C(=O)N[C@@](C)(Cc1c[nH]c2ccccc12)C(=O)NCC1(c2ccccn2)CCCCC1
c = C[C@@](Cc1c[nH]c2ccccc12)(NC(=O)c1ccc2[nH]ccc2c1)C(=O)NCC1(c2ccccn2)CCCCC1
Provide the items ranked by increasing pIC50. Form field (ranking): labels in requested order.
b, c, a
(b: 5.32, c: 5.73, a: 6.05)

P = C[C@@](Cc1c[nH]c2ccccc12)(NC(=O)c1cc2ccccc2cn1)C(=O)NCC1(c2ccccn2)CCCCC1
Q = C[C@@](Cc1c[nH]c2ccccc12)(NC(=O)c1ccccc1F)C(=O)NCC1(c2ccccn2)CCCCC1
Would you kindly point out which of P and Q has the smaller pIC50 figure? // caller expects the label of the chosen entry
Q
(Q: 5.40, P: 5.87)

###

Here the recorded melting point is given for each entry.

# melting point lookup, item O=C(NCC1(c2ccccn2)CCCCC1)[C@@H](Cc1ccccc1)Nc1ccccc1
113 to 115 °C

Do the same for CCc1coc(N[C@@](C)(Cc2c[nH]c3ccccc23)C(=O)NCC2(c3ccc(OC)cn3)CCCCC2)n1 please
60 to 65 °C

Another compound: C[C@@](Cc1c[nH]c2ccccc12)(Nc1cncc2ccccc12)C(=O)NCC1(c2ccccn2)CCCCC1
98 to 101 °C

Next entry: C[C@@](Cc1c[nH]c2ccccc12)(Nc1nc(-c2ccc([N+](=O)[O-])cc2)co1)C(=O)NCC(=O)c1ccccc1
80 to 90 °C

Item: C[C@@](Cc1c[nH]c2ccccc12)(Nc1ccncc1)C(=O)NCC1(c2ccccn2)CCCCC1
180 to 195 °C

Also need COCC1(CNC(=O)[C@](C)(Cc2c[nH]c3ccccc23)Nc2nc(-c3ccc([N+](=O)[O-])cc3)co2)CCCCC1 , thanks.
189 to 192 °C

Okay, next one:
For COc1ccc(C2(CNC(=O)[C@](C)(Cc3c[nH]c4ccccc34)Nc3nc(-c4ccc(C#N)cc4)co3)CCCCC2)nc1 , what is its reported melting point?
105 to 108 °C

###

Target: human NMB receptor (BB1) (Homo sapiens)
Construct: expressed in transfected cells; membranes prepared from the cells
Assay: BB1 binding assay ([125I][Tyr4]bombesin displacement, CHO-K1 membranes)
pIC50: −log10 of the molar value.
measured-property: pIC50

Quick check: pIC50 of C[C@@](Cc1c[nH]c2ccccc12)(NS(=O)(=O)c1cccc2nsnc12)C(=O)NCC1(c2ccccn2)CCCCC1 ?
6.59

Also C[C@@](Cc1c[nH]c2ccccc12)(NS(=O)(=O)c1cc([N+](=O)[O-])ccc1Cl)C(=O)NCC1(c2ccccn2)CCCCC1 , if possible.
6.43

A = C[C@@](Cc1c[nH]c2ccccc12)(NS(=O)(=O)c1ccccc1C#N)C(=O)NCC1(c2ccccn2)CCCCC1
B = C[C@@](Cc1c[nH]c2ccccc12)(NS(=O)(=O)c1ccccc1Cl)C(=O)NCC1(c2ccccn2)CCCCC1
C = CN(C)c1cccc2c(S(=O)(=O)N[C@@](C)(Cc3c[nH]c4ccccc34)C(=O)NCC3(c4ccccn4)CCCCC3)cccc12
D = C[C@@](Cc1c[nH]c2ccccc12)(NS(=O)(=O)c1cccc2cccnc12)C(=O)NCC1(c2ccccn2)CCCCC1
Descending sort on pIC50 required. Put the labels in the requested order and write them down.
D, B, A, C
(D: 6.97, B: 6.59, A: 6.39, C: 5.89)

P = C[C@@](Cc1c[nH]c2ccccc12)(NS(=O)(=O)c1ccc2ccccc2c1)C(=O)NCC1(c2ccccn2)CCCCC1
Q = C[C@@](Cc1c[nH]c2ccccc12)(NS(=O)(=O)c1ccc(F)cc1)C(=O)NCC1(c2ccccn2)CCCCC1
R = C[C@@](Cc1c[nH]c2ccccc12)(NS(=O)(=O)c1ccccc1-c1ccccc1)C(=O)NCC1(c2ccccn2)CCCCC1
S = Cc1nn(C)c(Cl)c1S(=O)(=O)N[C@@](C)(Cc1c[nH]c2ccccc12)C(=O)NCC1(c2ccccn2)CCCCC1
Arrange items by their pIC50 values in increasing order. Sort and list the labels as requested.
S, Q, P, R
(S: 5.90, Q: 6.25, P: 6.49, R: 6.78)

###

Biological target: human GRP receptor (BB2) (Homo sapiens, UniProt P30550)
Construct: expressed in transfected cells; membranes prepared from the cells
Sequence (P30550 whole entry): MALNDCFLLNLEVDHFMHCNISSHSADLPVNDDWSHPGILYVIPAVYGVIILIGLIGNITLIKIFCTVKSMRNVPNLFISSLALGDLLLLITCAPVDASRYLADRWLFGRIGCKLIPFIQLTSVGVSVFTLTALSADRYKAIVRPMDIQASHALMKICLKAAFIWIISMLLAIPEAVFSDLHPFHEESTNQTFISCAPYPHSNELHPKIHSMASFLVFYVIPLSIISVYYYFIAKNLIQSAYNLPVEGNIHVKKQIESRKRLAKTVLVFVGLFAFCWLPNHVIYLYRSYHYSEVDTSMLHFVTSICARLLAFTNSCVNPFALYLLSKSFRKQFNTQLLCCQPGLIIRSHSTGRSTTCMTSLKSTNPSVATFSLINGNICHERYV
Assay: BB2 binding assay ([125I][Tyr4]bombesin displacement, CHO-K1 membranes)
measured-property: IC50 (µM)

a = C[C@@](Cc1c[nH]c2ccccc12)(NS(=O)(=O)c1cccc(F)c1)C(=O)NCC1(c2ccccn2)CCCCC1 [Example 126]
b = C[C@@](Cc1c[nH]c2ccccc12)(NS(=O)(=O)c1ccc(F)cc1)C(=O)NCC1(c2ccccn2)CCCCC1 [Example 122]
Sorting by IC50 in descending order, would a or b appear first? Respond using the label that marks the chosen record.
b
(b: 4.16 µM, a: 2.76 µM)

###

Molecular target: human GRP receptor (BB2) (Homo sapiens, UniProt P30550)
Construct: expressed in transfected cells; membranes prepared from the cells
Test: BB2 binding assay ([125I][Tyr4]bombesin displacement, CHO-K1 membranes)
Settings: binding studies to the bombesin receptors
measured-property: pIC50
Scale for pIC50: -log10 of concentration given in mol/L; no unit attached.

Would you mind telling me what pIC50 value was observed for COc1ccc(C2(CNC(=O)[C@](C)(Cc3c[nH]c4ccccc34)NC(=O)c3cc4ccccc4[nH]3)CCCCC2)nc1 [Example 86] ?
6.92

###

Molecular target: human NMB receptor (BB1) (Homo sapiens, UniProt P28336)
Construct: expressed in transfected cells; membranes prepared from the cells
Assay: BB1 binding assay ([125I][Tyr4]bombesin displacement, CHO-K1 membranes)
Conditions: Table 1, human NMB receptor binding affinity; Ki from IC50 by Cheng-Prusoff; read-out: NMB Ki
Experimental: In the following experiments, measurement of BB1 and BB2 binding was as follows. […] Radioactivity bound was determined using a gamma counter. All competition data was analysed using nonlinear regression utilizing iterative curve-plotting procedures in Prism® (GraphPad Software Inc., San Diego, USA). […]
pKi: −log10 of the molar value.
measured-property: pKi

1 = O=C(NCC1(c2ccccn2)CCCCC1)[C@@H](Cc1ccccc1)Nc1ccccc1
2 = C[C@@](Cc1c[nH]c2ccccc12)(Nc1cccc(-c2ccccc2)n1)C(=O)NCC1(c2ccccn2)CCCCC1
3 = C[C@@](Cc1c[nH]c2ccccc12)(Nc1nc(-c2ccc([N+](=O)[O-])cc2)co1)C(=O)NCC(=O)c1ccccc1
4 = C[C@@](Cc1c[nH]c2ccccc12)(NCc1ccc([N+](=O)[O-])cc1)C(=O)NCC1(c2ccccn2)CCCCC1
Sort ascending by pKi. Quick reminder: the answer is the labels in the order asked.
3, 2, 4, 1

###

Molecular target: human GRP receptor (BB2) (Homo sapiens, UniProt P30550)
Construct: expressed in transfected cells; membranes prepared from the cells
Experiment: BB2 binding assay ([125I][Tyr4]bombesin displacement, CHO-K1 membranes)
Description: In the following experiments, measurement of BB1 and BB2 binding was as follows. […] Radioactivity bound was determined using a gamma counter. All competition data was analysed using nonlinear regression utilizing iterative curve-plotting procedures in Prism® (GraphPad Software Inc., San Diego, USA). […]
pIC50: −log10 of the molar value.
measured-property: pIC50

Guide cases for pIC50, answers given:
Dear colleague, I am looking for the recorded pIC50 of the following compound: Cc1cccc(S(=O)(=O)N[C@@](C)(Cc2c[nH]c3ccccc23)C(=O)NCC2(c3ccccn3)CCCCC2)c1
5.99

// next record Cc1ccc(S(=O)(=O)N[C@@](C)(Cc2c[nH]c3ccccc23)C(=O)NCC2(c3ccccn3)CCCCC2)cc1Cl
5.40

Would you kindly repeat that for C[C@@](Cc1c[nH]c2ccccc12)(NS(=O)(=O)c1ccc(Cl)cc1)C(=O)NCC1(c2ccccn2)CCCCC1 ?
5.36

// query: C[C@@](Cc1c[nH]c2ccccc12)(NS(=O)(=O)c1cccc(Cl)c1)C(=O)NCC1(c2ccccn2)CCCCC1
5.57

I = COc1cccc(S(=O)(=O)N[C@@](C)(Cc2c[nH]c3ccccc23)C(=O)NCC2(c3ccccn3)CCCCC2)c1
II = C[C@@](Cc1c[nH]c2ccccc12)(NS(=O)(=O)c1cccc2ccccc12)C(=O)NCC1(c2ccccn2)CCCCC1
Between these two entries, I and II , state which has the higher pIC50. Bench note: the answer is the label of the chosen record.
II
